Target: Human TRPV3 expressing CHO cells (Homo sapiens, UniProt Q8NET8)
Construct: expressed in transfected cells; host or cells: CHO cells, kept under G-418 selection
Sequence (Q8NET8 whole entry): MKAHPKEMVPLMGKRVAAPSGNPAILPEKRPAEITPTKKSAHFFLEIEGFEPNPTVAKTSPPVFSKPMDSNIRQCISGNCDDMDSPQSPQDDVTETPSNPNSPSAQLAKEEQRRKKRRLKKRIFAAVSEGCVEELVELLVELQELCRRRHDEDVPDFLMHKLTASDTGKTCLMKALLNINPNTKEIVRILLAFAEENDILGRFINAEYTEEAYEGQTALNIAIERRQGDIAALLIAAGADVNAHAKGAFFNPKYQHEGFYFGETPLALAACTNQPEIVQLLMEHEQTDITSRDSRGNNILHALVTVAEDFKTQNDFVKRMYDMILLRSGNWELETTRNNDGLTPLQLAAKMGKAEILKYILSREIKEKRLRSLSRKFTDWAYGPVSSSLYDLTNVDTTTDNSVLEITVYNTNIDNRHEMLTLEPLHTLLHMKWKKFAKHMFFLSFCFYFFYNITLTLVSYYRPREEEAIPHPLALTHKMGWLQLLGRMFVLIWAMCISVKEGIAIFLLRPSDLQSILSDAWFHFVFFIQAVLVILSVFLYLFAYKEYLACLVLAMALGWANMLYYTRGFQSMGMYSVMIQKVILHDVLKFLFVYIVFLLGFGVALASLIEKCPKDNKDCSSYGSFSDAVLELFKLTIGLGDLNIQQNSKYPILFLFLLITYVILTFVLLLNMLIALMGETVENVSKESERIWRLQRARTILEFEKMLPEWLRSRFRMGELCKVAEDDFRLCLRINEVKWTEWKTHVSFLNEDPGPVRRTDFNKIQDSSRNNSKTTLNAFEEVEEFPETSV
Experiment: 45Calcium uptake assay: inhibition of 2-APB induced cellular uptake of radioactive calcium
Assay type: cell-based
Conditions: compound at 1.0 μM, 2-APB 500 μM, read-out: Percentage inhibition at 1.0 μM
Method: Certain illustrative compounds within the scope of the present invention are screened for TRPV3 activity according to a modified procedure described in (a) Tóth, A. et al. Life Sciences 2003, 73, 487-498. […] The inhibition of TRPV3 receptor activation was followed as inhibition of 2-aminoethxydiphenylborate (2-APB) induced cellular uptake of radioactive calcium. […] Radioactivity in the lysate was measured in Packardt Top count after addition of liquid scintillant. […]
metric: inhibition at 1 µM (%)

| smiles.entry | inhibition at 1 µM (%) |
| --- | --- |
| CC(C)(C)COc1c(/C=C/c2nc3sccn3c2C(=O)Nc2nc(C3CCC3)cs2)cccc1OC(F)F | 47.9 |
| CC(C)(C)COc1c(/C=C/c2nc3sccn3c2C(=O)Nc2nc(C3CC3)cs2)cccc1OC(F)F | 93.2 |
| COc1cccc(/C=C/c2nc3sccn3c2C(=O)Nc2nc(C)cs2)c1OCC(C)(C)C | 69.3 |
| CC(C)c1csc(NC(=O)c2c(/C=C/c3cccc(OC(F)F)c3OCC(C)(C)C)nc3sccn23)n1 | 53.3 |
| COc1cccc(/C=C/c2nc3sccn3c2C(=O)Nc2nc(C(F)(F)F)cs2)c1OC1CCCC1 | 81.7 |

1 = CC(C)(C)COc1c(/C=C/c2nc3sccn3c2C(=O)Nc2nc3ccc(F)cc3s2)cccc1OC(F)F
2 = COc1cccc(/C=C/c2nc3sccn3c2C(=O)Nc2ccc(OC(F)(F)F)cc2)c1OCC1CC1
3 = COc1cccc(/C=C/c2nc3sccn3c2C(=O)N2CCN(c3ccc(C(F)(F)F)cn3)CC2)c1OCC1CC1
Order the records by inhibition at 1 µM, with each subsequent value no larger than the one before. Please list the labels according to the requested order.
3, 1, 2
(3: 36.2%, 1: 24%, 2: 9.3%)

a = CC(C)CCOc1c(/C=C/c2nc3sccn3c2C(=O)Nc2nc(C(F)(F)F)cs2)cccc1OC(F)F
b = COc1cccc(/C=C/c2nc3sccn3c2C(=O)N2CCCc3ccccc32)c1OCC1CC1
c = O=C(Nc1nc(C(F)(F)F)cs1)c1c(/C=C/c2cccc(OC(F)F)c2OCC2CCC2)nc2sccn12
d = COc1cccc(/C=C/c2nc3sccn3c2C(=O)N2CCN(c3ccc(C#N)cn3)CC2)c1OCC1CC1
e = CC(C)(C)COc1c(/C=C/c2nc3sccn3c2C(=O)Nc2nc3c(s2)CCC3)cccc1OC(F)F
# rank by inhibition at 1 µM, ascending (min first) Please list the labels according to the requested order.
d, e, b, a, c

I = CC(C)(C)COc1c(/C=C/c2nc3sccn3c2C(=O)Nc2ncc(C(F)(F)F)cc2Cl)cccc1OC(F)F
II = COc1cccc(/C=C/c2nc3sccn3c2C(=O)Nc2nc(C(F)(F)F)cs2)c1OCC(C)(C)C
Parameter metric = inhibition at 1 µM. Return the lower-valued option from I and II . Choose, then provide that item's label.
I
(I: 25.7%, II: 95.5%)

a = CC(C)(C)COc1c(/C=C/c2nc3sccn3c2C(=O)Nc2nc(C(C)(C)C)cs2)cccc1OC(F)F
b = CC(C)(C)COc1c(/C=C/c2nc3sccn3c2C(=O)NCCC#N)cccc1OC(F)F
Parameter metric = inhibition at 1 µM. Return the lower-valued option from a and b . Choose, then provide that item's label.
b
(b: 21.1%, a: 80.8%)

Values were extracted from patent US8318928B2.
